assay: Long-term stability testing; assay type: physicochemical; settings: solid, 60% rh storage; 25° C.±2° C./60%±5% RH, 6 months; read-out: Measured content
parameter measured: remaining at 4320 h

| line notation | experimental result |
| --- | --- |
| CC(=O)c1c(C)c2cnc(Nc3ccc4c(c3)OC[C@@H]3CN(C5CCN(C)CC5)CCN43)nc2n(C2CCCC2)c1=O | 101% |

====

assay: Stress testing (high temperature, high humidity, illumination); format: physicochemical; conditions: Illumination Testing 45001x ± 5001x, 30 days; read-out: Content
parameter measured: remaining at 720 h (%)

| compound | parameter measured | readout unit | experimental result |
| --- | --- | --- | --- |
| CC(=O)c1c(C)c2cnc(Nc3ccc4c(c3)OC[C@@H]3CN(C5CCN(C)CC5)CCN43)nc2n(C2CCCC2)c1=O [crystalline form A-I] | remaining at 720 h | % | 100 |

====

assay: Stress testing (high temperature, high humidity, illumination); format: physicochemical; settings: High Temperature (60° C.), 30 days; read-out: Content

| compound | remaining at 720 h (%) |
| --- | --- |
| CC(=O)c1c(C)c2cnc(Nc3ccc4c(c3)OC[C@@H]3CN(C5CCN(C)CC5)CCN43)nc2n(C2CCCC2)c1=O [crystalline form A-I] | 100 |

====

Assay: Stability test, placed open 7 days (HPLC purity, XRPD); grinding or crushing
Assay type: physicochemical
Settings: solid state, 92.5% RH, open, 7 days; read-out: Purity (Peak area %) 7 days
From the text: Subsequently, the samples after 7 days were respectively detected by HPLC and XRPD to determine their chemical and physical stabilities.

| compound | readout unit | remaining at […] |
| --- | --- | --- |
| CC(=O)c1c(C)c2cnc(Nc3ccc4c(c3)OC[C@@H]3CN(C5CCN(C)CC5)CCN43)nc2n(C2CCCC2)c1=O [crystalline form A-I] | % | 99.2 |

====

assay: Stress testing (high temperature, high humidity, illumination); format: physicochemical; conditions: High Humidity (92.5% RH), 30 days; read-out: Content

| molecule | remaining at 720 h (%) |
| --- | --- |
| CC(=O)c1c(C)c2cnc(Nc3ccc4c(c3)OC[C@@H]3CN(C5CCN(C)CC5)CCN43)nc2n(C2CCCC2)c1=O [crystalline form A-I] | 101 |

====

assay: Stress testing (high temperature, high humidity, illumination); format: physicochemical; conditions: High Temperature (60° C.), 7 days; read-out: Content

| compound | remaining at […], % |
| --- | --- |
| CC(=O)c1c(C)c2cnc(Nc3ccc4c(c3)OC[C@@H]3CN(C5CCN(C)CC5)CCN43)nc2n(C2CCCC2)c1=O [crystalline form A-I] | 100 |

====

test: Accelerated stability testing; type: physicochemical; conditions: solid, 75% rh storage; 40° C.±2° C./75%±5% RH, 6 months; read-out: Measured content
parameter measured: remaining at 4320 h

| line notation | experimental result |
| --- | --- |
| CC(=O)c1c(C)c2cnc(Nc3ccc4c(c3)OC[C@@H]3CN(C5CCN(C)CC5)CCN43)nc2n(C2CCCC2)c1=O | 101% |

====

assay: Accelerated stability testing; type: physicochemical; conditions: solid, 75% rh storage; 40° C.±2° C./75%±5% RH, 2 months; read-out: Measured content
parameter measured: remaining at 1440 h (%)

| line notation | experimental result |
| --- | --- |
| CC(=O)c1c(C)c2cnc(Nc3ccc4c(c3)OC[C@@H]3CN(C5CCN(C)CC5)CCN43)nc2n(C2CCCC2)c1=O | 101 |

====

assay: Accelerated stability testing; type: physicochemical; details: solid, 75% rh storage; 40° C.±2° C./75%±5% RH, 3 months; read-out: Measured content
parameter measured: remaining at 2160 h (%)

| line notation | experimental result |
| --- | --- |
| CC(=O)c1c(C)c2cnc(Nc3ccc4c(c3)OC[C@@H]3CN(C5CCN(C)CC5)CCN43)nc2n(C2CCCC2)c1=O | 101 |

====

Assay: Long-term stability testing
Assay type: physicochemical
Details: solid, 60% rh storage; 25° C.±2° C./60%±5% RH, 9 months; read-out: Measured content
Method: (3) Long-Term Stability Testing Packaging: Simulated the commercial packaging (using a pharmaceutical-grade low-density polyethylene bag as the inner packaging and a polyester/aluminum/polyethylene composite bag for pharmaceutical packaging as the outer packaging) Investigation conditions: 25° C.±2° C./60%±5% RH

| line notation | remaining at 6480 h |
| --- | --- |
| CC(=O)c1c(C)c2cnc(Nc3ccc4c(c3)OC[C@@H]3CN(C5CCN(C)CC5)CCN43)nc2n(C2CCCC2)c1=O | 99.6% |

====

assay: Stability test, placed open 7 days (HPLC purity, XRPD); grinding or crushing; assay type: physicochemical; conditions: solid state, 60° C., open, 7 days; read-out: Purity (Peak area %) 7 days
parameter measured: remaining at […]

| compound | experimental result |
| --- | --- |
| CC(=O)c1c(C)c2cnc(Nc3ccc4c(c3)OC[C@@H]3CN(C5CCN(C)CC5)CCN43)nc2n(C2CCCC2)c1=O [crystalline form A-I] | 99.2% |

From: patent US20260285879A1
